B1: ZNF449 (parent)
chain: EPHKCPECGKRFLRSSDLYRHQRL

Variants of: B1
ASSAY_NAME: protein stability index of a GFP-peptide fusion (GPS, HEK-293T) (PSI 1-6); higher = more stable;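 note: lentivirally expressed fusions sorted by FACS into six bins by GFP to DsRed ratio, PSI derived from sequencing read proportions per bin multiplied by bin number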
DETAILS: c terminus: a fixed tail appended
Label No if protein stability index falls below 3; label Yes in every other case.

The following variants have reported results that may help.
INSERT INTO measurements (mutant, discrete_label) VALUES
  ('K4L', 'Yes'),
  ('K4I', 'Yes'),
  ('R11S', 'Yes'),
  ('Q22F', 'Yes'),
  ('P6C', 'Yes'),
  ('P6N', 'Yes'),
  ('E1P', 'Yes'),
  ('C8N', 'Yes'),
  ('E1I', 'No'),
  ('P6W', 'Yes');

Does the reported protein stability index for H21L fall at or above the 3 mark?
No

Does the reported protein stability index for C5T fall at or above the 3 mark?
No

Does the reported protein stability index for D17T fall at or above the 3 mark?
No

Does the reported protein stability index for Y19T fall at or above the 3 mark?
Yes
